I'd appreciate it if you could supply inhibition at 1 µM values for the items below.
# TGT: FAAH (Mus musculus)
# Construct: Proteomes (mouse brain membrane fraction or cell lysates); from tissue; host or cells: mouse brain membrane fraction (or cell lysates, not specified)
# Sequence (O08914 whole entry): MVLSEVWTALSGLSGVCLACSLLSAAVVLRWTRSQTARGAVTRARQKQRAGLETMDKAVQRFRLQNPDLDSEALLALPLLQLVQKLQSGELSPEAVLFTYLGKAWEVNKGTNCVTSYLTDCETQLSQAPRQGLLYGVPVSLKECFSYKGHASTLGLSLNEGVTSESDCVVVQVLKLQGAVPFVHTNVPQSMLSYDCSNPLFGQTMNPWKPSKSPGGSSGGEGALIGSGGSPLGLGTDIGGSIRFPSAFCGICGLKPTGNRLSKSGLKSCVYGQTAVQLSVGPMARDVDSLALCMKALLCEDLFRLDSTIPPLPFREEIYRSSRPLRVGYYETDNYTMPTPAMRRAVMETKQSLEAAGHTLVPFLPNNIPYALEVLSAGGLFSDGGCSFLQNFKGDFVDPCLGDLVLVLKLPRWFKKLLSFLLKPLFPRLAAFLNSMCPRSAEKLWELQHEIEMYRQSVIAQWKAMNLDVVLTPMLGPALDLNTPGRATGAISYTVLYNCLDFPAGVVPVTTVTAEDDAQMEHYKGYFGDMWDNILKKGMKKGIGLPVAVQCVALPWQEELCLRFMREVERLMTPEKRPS
# EXPERIMENT SUMMARY: In vitro competitive activity-based protein profiling (gel-based, FP-Rh or HT-01 probe)
# Assay type: biochemical
# TEST CONDITIONS: 1 μM inhibitor; gel-based competitive ABPP; read-out: % Inhibition at 1 μM, B = FAAH

What value of inhibition at 1 µM has been recorded for this entry: Cc1cccc(CN2CCN(C(=O)n3cc(C(F)(F)F)cn3)CC2)c1
> 75%

Name the recorded inhibition at 1 µM for CCN(Cc1cccc(C)c1)C(=O)n1cc(C)cn1 .
< 25%

Suppose we examine the compound Cc1cnn(C(=O)N2CCN(Cc3cccc(Oc4ccccc4)c3)CC2)c1 ; what inhibition at 1 µM value has been reported?
> 75%

Which inhibition at 1 µM is listed for Cc1cnn(C(=O)N2CCN(Cc3cccc(OCc4ccccc4)c3)CC2)c1 ?
> 75%

Need inhibition at 1 µM, item CCN(Cc1ccc(OC)cc1)C(=O)n1cc(C)cn1
< 25%
